The values you see were collected from patent US9340577B2.

- Target Entity: DRB5*0101 (Homo sapiens, UniProt P01903+Q30154)
- Assay Overview: biochemical
- Test Settings: Binding affinity DRB5 *0101
Reported Property: IC50

Compound: CC[C@H](C)[C@H](NC(=O)[C@@H](NC(=O)[C@@H]1CCCN1C(=O)CNC(=O)[C@@H](NC(=O)[C@H](CC(C)C)NC(=O)[C@H](CCC(=O)O)NC(=O)[C@H](C)NC(=O)[C@@H](N)Cc1ccccc1)C(C)C)C(C)C)C(=O)N1CCC[C@H]1C(=O)N[C@@H](CCC(N)=O)C(=O)N[C@@H](CC(=O)O)C(=O)N[C@@H](Cc1c[nH]c2ccccc12)C(=O)N[C@@H](CO)C(=O)N[C@H](C(=O)O)[C@@H](C)O [Peptide 68.0056]
Reported Result: > 20 µM

Compound: CSCC[C@H](NC(=O)[C@H](Cc1ccc(O)cc1)NC(=O)[C@H](Cc1ccc(O)cc1)NC(=O)[C@@H](NC(=O)[C@@H](N)CO)C(C)C)C(=O)N[C@H](C(=O)N[C@@H](CC(=O)O)C(=O)N[C@@H](C)C(=O)NCC(=O)N[C@H](C(=O)N[C@@H](Cc1c[nH]c2ccccc12)C(=O)N[C@@H](CC(=O)O)C(=O)N[C@@H](CCCCN)C(=O)N[C@H](C(=O)N[C@@H](C)C(=O)O)[C@@H](C)O)[C@@H](C)O)[C@@H](C)O [Peptide 90.0182]
Reported Result: > 20 µM

Compound: CC[C@H](C)[C@H](NC(=O)[C@@H](N)CC(C)C)C(=O)N[C@@H](CCSC)C(=O)N[C@@H](Cc1ccc(O)cc1)C(=O)N[C@@H](CO)C(=O)N[C@@H](C)C(=O)N[C@@H](Cc1c[nH]cn1)C(=O)N[C@@H](CC(=O)O)C(=O)N[C@H](C(=O)N[C@H](C(=O)N[C@H](C(=O)N[C@@H](CO)C(=O)NCC(=O)N[C@@H](CC(C)C)C(=O)N[C@@H](CCC(N)=O)C(=O)O)C(C)C)[C@@H](C)O)[C@@H](C)O [Peptide 68.0050]
Reported Result: > 20 µM

###

- Target Entity: B*3501 (Homo sapiens, UniProt P01889, A329T/A93T/A95T/C349S/D201E/D98Y/E176V/E187L/E204Q/E69T/I218V/K202T/L119I/Q94N/R155S/R180L/S121R/S35A/S48A/T118I/V127L/V306I/V36M/Y140S/Y91F)
- Assay Overview: biochemical
pIC50: −log10 of the molar value.

Smiles: CC(C)C[C@H](NC(=O)[C@H](C)NC(=O)[C@@H](NC(=O)[C@H](CC(C)C)NC(=O)[C@H](C)NC(=O)[C@@H](NC(=O)[C@@H](NC(=O)[C@H](CCCNC(=N)N)NC(=O)[C@@H]1CCCN1C(=O)[C@H](C)N)[C@@H](C)O)C(C)C)[C@@H](C)O)C(=O)O
Relation Qualifier: <
pIC50: 4.52
--
Smiles: CC(C)C[C@H](NC(=O)[C@H](Cc1ccccc1)NC(=O)[C@H](CCCCN)NC(=O)[C@@H]1CCCN1C(=O)CNC(=O)[C@@H]1CCCN1C(=O)[C@@H](N)CC(C)C)C(=O)N[C@@H](CCC(N)=O)C(=O)N[C@@H](Cc1ccc(O)cc1)C(=O)O
Relation Qualifier: =
pIC50: 6.83

###

- Target Entity: DRB4*0101 (Homo sapiens, UniProt P01903+P13762, G164S)
- Assay Overview: biochemical
- Type: binding
pIC50: −log10 of the molar value. No end group written: not given here.
Binning scheme for pIC50: label 0 = under 6, label 1 = from 6 up to 7, label 2 = 7 and over

Sequence Chain: IHFLQGAIISFVNSN [Peptide 89.0089]
Category: label 1
//
Sequence Chain: AKALQAIELQMMLET [Peptide 89.0171]
Category: label 0
//
Sequence Chain: GKSLFGMSLMKFLQG [Peptide 89.0019]
Category: label 1
//
Sequence Chain: QEQMLIQPPKIRSPA [Peptide 89.0124]
Category: label 0
//
Sequence Chain: MAIFGVNPTVAEGFK [Peptide 89.0081]
Category: label 1
//
Sequence Chain: FLDVVTIPNSVQISV [Peptide 1601.40]
Category: label 0
//
Sequence Chain: RLTVSKLMSQLLNIP [Peptide 89.0100]
Category: label 0
//
Sequence Chain: TTIYNNEEWTLRDTC [Peptide 90.0232]
Category: label 0
//
Sequence Chain: FKYFKEDAAKYSKTQ [Peptide 90.0206]
Category: label 0
//
Sequence Chain: DWCVAAFGVTGTVAE [Peptide 89.0042]
Category: label 1
//
Sequence Chain: LVQLKCPPLLITSNI [Peptide 89.0021]
Category: label 1
//
Sequence Chain: QQQMFLGTVKIPPTV [Peptide 89.0187]
Category: label 0
//
Sequence Chain: VSKLMSQLLNIPETH [Peptide 89.0101]
Category: label 0
//
Sequence Chain: QIQVFETLEET [Peptide 1385.01]
Category: label 0
//
Sequence Chain: VKFLRYQQIEFVSFL [Peptide 89.0052]
Category: label 2
//
Sequence Chain: FIHFLQGAIISFVNS [Peptide 89.0088]
Category: label 0
//
Sequence Chain: VSFLSALKLFLKGVP [Peptide 89.0053]
Category: label 2
//
Sequence Chain: KNCILIHGAPNTGKS [Peptide 89.0055]
Category: label 1
//
Sequence Chain: KVAMLDDATHTCWTY [Peptide 90.0105]
Category: label 2
//
Sequence Chain: EYILDLHPEPTDLFC [Peptide 1543.51]
Category: label 2
//
Sequence Chain: LKAICIEKQSRAAKR [Peptide 90.0032]
Category: label 2
//
Sequence Chain: TPEWIQRLTIIQHGI [Peptide 89.0030]
Category: label 2
//
Sequence Chain: DNDIVDDSEIAYKYA [Peptide 90.0037]
Category: label 0

###

- Target Entity: B*5401 (Homo sapiens, UniProt P01889, A329T/C349S/D138N/D201E/E176V/E187T/E204Q/E69G/I76V/K202T/L119W/R155S/R180L/S121T/S35A/S48A/V127L/V306I/V36M/Y140L)
- Assay Overview: biochemical
Reported Property: IC50 (nM)

Smiles: CC(C)C[C@H](NC(=O)[C@H](CC(N)=O)NC(=O)[C@@H]1CCCN1C(=O)[C@@H](NC(=O)[C@H](C)NC(=O)[C@H](Cc1ccccc1)NC(=O)[C@H](CCCCN)NC(=O)[C@@H]1CCCN1C(=O)[C@@H](N)Cc1c[nH]c2ccccc12)C(C)C)C(=O)O
Reported Result: 7170
--
Smiles: CSCC[C@H](NC(=O)[C@H](CC(C)C)NC(=O)[C@H](C)NC(=O)[C@@H]1CCCN1C(=O)[C@@H](N)Cc1ccc(O)cc1)C(=O)N1CCC[C@H]1C(=O)N[C@@H](CC(C)C)C(=O)N[C@@H](Cc1ccc(O)cc1)C(=O)N[C@@H](C)C(=O)O
Reported Result: 0.8
--
Smiles: CC[C@H](C)[C@H](NC(=O)[C@H](CC(C)C)NC(=O)[C@H](CC(C)C)NC(=O)CNC(=O)[C@@H](NC(=O)[C@H](CCCCN)NC(=O)[C@@H]1CCCN1C(=O)[C@@H](N)CCSC)[C@@H](C)O)C(=O)N[C@H](C(=O)N[C@H](C(=O)O)C(C)C)[C@@H](C)CC
Reported Result: 170
--
Smiles: CC(C)C[C@H](NC(=O)[C@H](Cc1ccc(O)cc1)NC(=O)[C@@H]1CCCN1C(=O)[C@@H](N)Cc1ccccc1)C(=O)N[C@H](C(=O)N[C@@H](C)C(=O)N[C@@H](Cc1ccc(O)cc1)C(=O)N[C@@H](CCC(N)=O)C(=O)N[C@@H](C)C(=O)O)C(C)C
Reported Result: 1.2

###

Measured IC50 (B*0702 (B*0701) (Homo sapiens))
Reported Property: IC50 (µM)

Compound: CC[C@H](C)[C@H](NC(=O)[C@H](C)NC(=O)[C@H](CC(C)C)NC(=O)[C@H](CCC(N)=O)NC(=O)[C@@H](NC(=O)[C@H](CCC(=O)O)NC(=O)[C@H](CC(C)C)NC(=O)[C@@H]1CCCN1C(=O)[C@@H](N)CCSC)[C@@H](C)O)C(=O)O
Reported Property: IC50
Relation Qualifier: =
Reported Result: 0.054
//
Compound: CC(C)C[C@H](NC(=O)[C@H](C)NC(=O)[C@@H](NC(=O)[C@H](CC(C)C)NC(=O)[C@H](C)NC(=O)[C@@H](NC(=O)[C@@H](NC(=O)[C@H](CCCNC(=N)N)NC(=O)[C@@H]1CCCN1C(=O)[C@H](C)N)[C@@H](C)O)C(C)C)[C@@H](C)O)C(=O)O [APRTVALTAL]
Reported Property: IC50
Relation Qualifier: =
Reported Result: 0.0042
//
Compound: CC(C)C[C@H](NC(=O)[C@H](Cc1ccccc1)NC(=O)[C@H](CCCCN)NC(=O)[C@@H]1CCCN1C(=O)CNC(=O)[C@@H]1CCCN1C(=O)[C@@H](N)CC(C)C)C(=O)N[C@@H](CCC(N)=O)C(=O)N[C@@H](Cc1ccc(O)cc1)C(=O)O
Reported Property: IC50
Relation Qualifier: >
Reported Result: 30
//
Compound: CC[C@H](C)[C@H](NC(=O)[C@@H]1CCCN1C(=O)[C@@H](N)CCCCN)C(=O)N[C@H](C(=O)N[C@@H](CCC(N)=O)C(=O)N[C@@H](Cc1ccc(O)cc1)C(=O)N[C@@H](CC(=O)O)C(=O)N[C@@H](CC(N)=O)C(=O)N[C@@H](Cc1ccccc1)C(=O)O)C(C)C
Reported Property: IC50
Relation Qualifier: =
Reported Result: 27.3
//
Compound: CC(C)C[C@H](N)C(=O)N1CCC[C@H]1C(=O)N[C@@H](Cc1ccccc1)C(=O)N[C@@H](CC(=O)O)C(=O)N[C@@H](Cc1ccccc1)C(=O)N[C@H](C(=O)N1CCC[C@H]1C(=O)NCC(=O)N[C@@H](Cc1ccc(O)cc1)C(=O)O)[C@@H](C)O
Reported Property: IC50
Relation Qualifier: >
Reported Result: 30
//
Compound: CC[C@H](C)[C@H](NC(=O)[C@H](CCC(=O)O)NC(=O)[C@H](C)NC(=O)[C@@H]1CCCN1C(=O)[C@@H](N)Cc1ccc(O)cc1)C(=O)N[C@H](C(=O)N[C@@H](CC(C)C)C(=O)N[C@H](C(=O)N[C@@H](Cc1c[nH]c2ccccc12)C(=O)O)[C@@H](C)O)[C@@H](C)O
Reported Property: IC50
Relation Qualifier: =
Reported Result: 0.104
